- Tested on: EKVX NSCLC
- Measurement description: NCI tumour cell line growth inhibition, 48 h

{"columns": ["Compound", "TGI"],
 "data": [
  ["COc1ccc(OC)c2sc(N3C(=O)/C(=C/Cc4ccco4)N=C3c3ccccc3)nc12", "> 100 µM"],
  ["CN(C)c1ccc(/C=C/C=C\\C2=CC(=C\\C=C/C=C3C=CC(=[N+](C)C)C=C3)/Sc3ccccc32)cc1", "> 100 µM"],
  ["CSc1nc2ccccc2c(=O)n1/N=C1\\C(=O)N(CN2CCCCC2)c2ccc(Cl)cc21", "> 100 µM"],
  ["C[C@H]1[C@H](C)N(Cc2ccccc2)P(=O)(C(O)/C=C/c2ccccc2)N1Cc1ccccc1 (stereo partly specified)", "24.9 µM"],
  ["O=C1NC(N2CCOCC2)=N/C1=C\\c1cccs1", "> 100 µM"],
  ["N#Cc1ncc(/N=C/c2ccc(N(CCCl)CCCl)cc2)s1", "> 100 µM"],
  ["O=C(O)C1CC2C3CCC2C1C3=O (stereo unspecified)", "> 100 µM"],
  ["O=P(O)(OCC(O)O)OCC(O)O", "> 100 µM"],
  ["N#CSc1ncnc2nc[nH]c12", "> 100 µM"],
  ["CCCN1C(=O)/C(=c2\\sc3n(c2=O)C2C(NN=3)N(CC)C(=O)N2CC)c2ccccc21 (stereo unspecified)", "> 57.2 µM"],
  ["COc1ccc(-c2ccc(-c3ccc(C(=N)N)nc3)s2)cc1", "3.14 µM"]
]}

* * *

- Tested on: HOP-18 NSCLC
- Measurement description: NCI tumour cell line growth inhibition, 48 h

{"columns": ["Molecule", "TGI"],
 "data": [
  ["O=S(=O)([O-])[O-].[Fe+2].c1ccc(/C(=N\\Nc2ccccn2)c2ccccn2)cc1", "14.6 µM"],
  ["CCOP(=O)(OCC)C1CCCCOC1=O (configuration not stated)", "> 100 µM"],
  ["CN1CCc2c1nc(-c1ccccc1)c1c2N(C)CC1", "78.6 µM"],
  ["COc1cc(/C=C\\c2ccccn2)cc(OC)c1OC", "> 100 µM"],
  ["CCCC(O)[C@@H](O)c1ccc2c(c1O)C(=O)c1c(OC)cccc1C2=O (some centres not stated)", "> 100 µM"],
  ["COc1cc(/C=C/C(=O)c2sc(-n3nc(-c4ccccc4)cc3-c3ccccc3)nc2C)ccc1O", "> 100 µM"],
  ["COC12C=CC(CC1)c1c(O)ccc(O)c12 (configuration not stated)", "> 100 µM"]
]}

* * *

- Test system: PC-3 prostate
- Measurement description: NCI tumour cell line growth inhibition, 48 h
Reported values of TGI for individual entries
Readout label: TGI

{"columns": ["Chemical smiles", "Value measured"],
 "data": [
  ["C=C(C)[C@@H]1CC=C(CO)CC1", "> 10 µM"],
  ["COc1ccc2c(c1)CC[C@@H]1[C@@H]2CC[C@]2(C)C(=O)C3(CCCCC3)C[C@@H]12", "> 100 µM"],
  ["CSC1=N[C@H](c2ccccc2)CS1", "> 100 µM"]
]}

* * *

- System: A498 renal
- Measurement description: NCI tumour cell line growth inhibition, 48 h
*1 amine or outer side, *2 acyl side, *3 side chain or, on linkers, in order; H or OH if unused. Where a SMILES comes first, the peptide text is derived from it. Bridges are numbered along the chain shown (N, C = ends). [ ]: non-standard residue; d: D form. The star is where a group is joined. X38 = CC[C@H](C)[C@@H](N[*:1])[C@@H](O)CC(=O)[*:2]; NMeY = CN[C@@H](Cc1ccc(O)cc1)C(=O)O; dNMeL = CN[C@H](CC(C)C)C(=O)O; Hiv = CC(C)[C@H](O)C(=O)O; Pyruvoyl = CC(=O)C(=O)*
Rule: TGI of 20 µM or more gives fulfilled; anything lower gives not fulfilled.

{"columns": ["Molecule", "Tested on", "Answer label"],
 "data": [
  ["Cc1c(C#N)c2nnn(C)c(=O)n2c1-c1ccccc1", "A498 renal", "fulfilled"],
  ["CCc1c(C)[nH]c(/C=C2\\N=C(c3ccc[nH]3)C=C2OC)c1C", "A498 renal", "fulfilled"],
  ["O=S1(=O)c2cnccc2NC(=NCc2cccc3ccccc23)N1c1ccccc1", "A498 renal", "fulfilled"],
  ["Cc1occc1C(=S)Nc1ccc(Cl)c(C(=O)OCC(F)(F)F)c1", "A498 renal", "fulfilled"],
  ["O=S(=O)([O-])[O-].[Fe+2].c1ccc(/C(=N\\Nc2ccccn2)c2ccccn2)cc1", "A498 renal", "fulfilled"],
  ["CC1=C(C(=O)Nc2cccc3c2C(=O)NC3=O)CC(C(=O)Nc2cccc3c2C(=O)NC3=O)=C(C)N1", "A498 renal", "fulfilled"],
  ["CSc1nc2ccccc2c(=O)n1/N=C1\\C(=O)N(CN2CCCCC2)c2ccc(Cl)cc21", "A498 renal", "fulfilled"],
  ["N#CC1(C#N)C2CCCCC23OC(=N)C1(C#N)C(c1ccco1)O3 (configuration not stated)", "A498 renal", "fulfilled"],
  ["CCCCc1ccc(Nc2nc(Cl)c3c(ncn3COCCOC(C)=O)n2)cc1", "A498 renal", "fulfilled"],
  ["NCCCNCCCNCCCN", "A498 renal", "fulfilled"],
  ["CCOC(=O)c1cc(Sc2ccc(N)c(C(=O)OCC)c2)ccc1N", "A498 renal", "fulfilled"],
  ["O=c1[nH]c(=O)n(C2OC(CO)C(O)C(F)C2O)cc1F (configuration not stated)", "A498 renal", "fulfilled"],
  ["O=C(O)[C@@H]1C2CC([C@@H]1C(=O)O)[C@H](N1C(=O)CCC1=O)[C@@H]2Br (some centres not stated)", "A498 renal", "fulfilled"],
  ["OCC1OC(n2ccc3c2ncn2ncnc32)C(O)C1O (configuration not stated)", "A498 renal", "not fulfilled"],
  ["C[C@]12CC[C@H]3[C@@H](CCC4=CC(=O)CC[C@@H]43)[C@@H]1CC[C@@H]2OC(=O)N(CCCl)N=O", "A498 renal", "not fulfilled"],
  ["O=C1C/C(=C/c2ccc(/C=C3/CC(=O)N(c4cccc(Br)c4)C3=O)cc2)C(=O)N1c1cccc(Br)c1", "A498 renal", "fulfilled"],
  ["CCCC(O)[C@@H](O)c1ccc2c(c1O)C(=O)c1c(OC)cccc1C2=O (some centres not stated)", "A498 renal", "fulfilled"],
  ["CC[C@H](C)[C@H]1NC(=O)[C@@H](NC(=O)[C@@H](CC(C)C)N(C)C(=O)[C@@H]2CCCN2C(=O)C(C)=O)[C@@H](C)OC(=O)[C@H](Cc2ccc(OC)cc2)N(C)C(=O)[C@@H]2CCCN2C(=O)[C@H](CC(C)C)NC(=O)[C@H](C(C)C)OC(=O)C[C@@H]1O (Pyruvoyl-P[dNMeL]T[X38][Hiv]LP[NMeY](Me); ester 3-C)", "A498 renal", "not fulfilled"],
  ["N#CC(C#N)=Cc1ccc(-c2ccc(-c3nc4ccccc4s3)cc2)o1", "A498 renal", "not fulfilled"],
  ["COc1cc(OCc2ccc3nc(-c4ccccc4)c(N)nc3c2)cc(OC)c1OC", "A498 renal", "fulfilled"],
  ["COc1ccc2c(c1)CC[C@@H]1[C@@H]2CC[C@]2(C)C(=O)C3(CCCCC3)C[C@@H]12", "A498 renal", "fulfilled"],
  ["C/C(=N\\N)C(CN(C)C)C(c1ccccc1)c1c(O)c2ccccc2oc1=O (configuration not stated)", "A498 renal", "fulfilled"],
  ["C[C@@]12C=CC3C/C(=N\\C(N)=S)C=C(CCCC4OCCO4)[C@]3(CC1)C2 (some centres not stated)", "A498 renal", "fulfilled"],
  ["COc1cc(/C=C/C(=O)c2sc(-n3nc(-c4ccccc4)cc3-c3ccccc3)nc2C)ccc1O", "A498 renal", "fulfilled"],
  ["Cc1ccc(C(=O)Nc2ccc(S(=O)(=O)O)c3cc(S(=O)(=O)O)cc(S(=O)(=O)O)c23)cc1NC(=O)c1cccc(N)c1", "A498 renal", "fulfilled"],
  ["COc1cc2c(cc1OC)-c1[nH]c3ccc(C#N)cc3c1CC(=O)N2", "A498 renal", "fulfilled"],
  ["COc1ccc(C(=O)/C=C/c2ccc(Cl)cc2)cc1S(=O)(=O)Nc1c(N)nc(SC)[nH]c1=O", "A498 renal", "fulfilled"],
  ["C=C(C)[C@@H]1CC[C@]2(C(=O)NCCCN)CC[C@]3(C)[C@H](CC[C@@H]4[C@@]5(C)CC[C@H](O)C(C)(C)[C@@H]5CC[C@]43C)[C@@H]12", "A498 renal", "fulfilled"],
  ["NC(=O)OCC(COc1ccc(Cl)cc1)OC(=O)c1ccccc1Cl (configuration not stated)", "A498 renal", "fulfilled"],
  ["Cc1cc(N2CCCCC2)nc(N(CCNc2ccnc3cc(Cl)ccc23)Cc2ccco2)n1", "A498 renal", "not fulfilled"],
  ["CC(=O)OCC(=O)[C@@]1(O)CC[C@H]2[C@@H]3CCC4=CC(=O)[C@H](C)C[C@]4(C)[C@H]3[C@@H](O)C[C@@]21C", "A498 renal", "fulfilled"],
  ["c1csc(-c2cscc2-c2ccsc2)c1", "A498 renal", "fulfilled"],
  ["O=C(NO)c1ccc([N+](=O)[O-])cc1", "A498 renal", "fulfilled"],
  ["O=C(O)C1CC2C3CCC2C1C3=O (configuration not stated)", "A498 renal", "fulfilled"],
  ["CCOC(=O)c1c2c(n(CC(C)C)c1C)-c1nc[nH]c1C(=O)C2=O", "A498 renal", "fulfilled"],
  ["CCN(CC)CCOc1ccc(C(=C(C)c2ccc(Cl)cc2)c2ccc(OCCN(CC)CC)cc2)cc1", "A498 renal", "not fulfilled"],
  ["NS(=O)(=O)c1cc2c(cc1Cl)NC(C(=O)c1cc(=O)c3ccc(O)cc3o1)=NS2(=O)=O", "A498 renal", "fulfilled"]
]}
